- Test system: MV4-11
- methodSummary: cells
- setupConditions: Homo sapiens, MV4-11, 96 h
Here the recorded pIC50 is given for each entry.
Value format note: pIC50 is -log10 of concentration (mol/L); just state the number.

CCCC(=O)O[C@H]1CCC[C@@H]1[C@](C#N)(c1ccccc1)C1CCN(CC2CN(c3ccc(C#N)cc3)C2)CC1 (mixture of isomers) :: 4.97
N#Cc1ccc(N2CC(CN3CCC(C4(C5CCCC5)NCCc5ccccc54)CC3)C2)cc1 (stereo not drawn) :: 5.89
O=S(=O)(c1ccncc1)c1ccc(N2CC(CN3CCC(C4(C5CCCC5)CN(C5CCC5)Cc5ccccc54)CC3)C2)cc1 (stereo not drawn) :: 6.05
CS(=O)(=O)c1ccc(N2CC(CN3CCC(C4(C5CCCC5)NCCc5ccccc54)CC3)C2)cc1 (stereo not drawn) :: 5.35
N#Cc1ccc(OCCN2CCC(C3(C4CCCC4)NCCc4ccccc43)CC2)cc1 (stereo not drawn) :: 5.74

Record CCO[C@H]1CCC[C@@H]1[C@](C#N)(c1ccccc1)C1CCN(CC2CN(c3ccc(C#N)cc3)C2)CC1 (racemic) / MV4-11, pIC50 recorded as 5.37

For O=S(=O)(c1ccncc1)c1ccc(N2CC(CN3CCC(C4(C5CCCC5)NCCc5ccccc54)CC3)C2)cc1 (stereo not drawn) on MV4-11, measured pIC50 was 5.89

Entry N#Cc1ccc(N2CCC(CN3CCC(C4(C5CCCC5)NCCc5ccccc54)CC3)C2)cc1 (stereo not drawn) : pIC50 on MV4-11 = 5.62
